Target: Tyrosyl-tRNA synthetase, putative (Trypanosoma cruzi (strain CL Brener)) (UniProt Q4DSP6)
Sequence (whole entry): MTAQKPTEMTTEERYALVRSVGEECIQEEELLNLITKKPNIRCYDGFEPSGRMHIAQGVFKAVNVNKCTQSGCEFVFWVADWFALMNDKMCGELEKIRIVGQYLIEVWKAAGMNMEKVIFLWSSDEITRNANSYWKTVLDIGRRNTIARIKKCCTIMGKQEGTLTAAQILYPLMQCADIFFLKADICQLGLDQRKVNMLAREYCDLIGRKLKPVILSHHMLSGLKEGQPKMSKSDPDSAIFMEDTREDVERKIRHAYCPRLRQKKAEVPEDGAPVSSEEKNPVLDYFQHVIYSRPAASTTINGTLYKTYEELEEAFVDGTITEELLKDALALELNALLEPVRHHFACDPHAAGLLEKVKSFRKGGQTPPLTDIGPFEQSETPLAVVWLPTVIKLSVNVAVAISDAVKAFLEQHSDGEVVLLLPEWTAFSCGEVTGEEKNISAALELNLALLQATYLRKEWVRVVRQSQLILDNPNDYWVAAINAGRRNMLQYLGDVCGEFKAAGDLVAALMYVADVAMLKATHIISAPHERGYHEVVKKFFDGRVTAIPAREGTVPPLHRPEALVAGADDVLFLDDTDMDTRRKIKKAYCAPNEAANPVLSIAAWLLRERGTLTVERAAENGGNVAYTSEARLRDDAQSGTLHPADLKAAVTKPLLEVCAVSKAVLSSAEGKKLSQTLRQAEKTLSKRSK
Assay: Trypanosoma cruzi tyrosyl tRNA synthetase (TcYRS) SOP
Assay type: functional
Parameters: scale not given: direction of the effect not stated beside the values
Settings: 30 µM
metric.name: Percent Effect (%)
Reply with just the number (in %).

Here are 2 compounds together with their reported answers.
{"compound": "COc1ccc(C2CCCN2C(=O)c2cc3c([nH]c2=O)CCC3)cc1 (stereo not drawn)", "metric.name": "Percent Effect", "measurement.units": "%", "numeric.readout": 8.54}
{"compound": "c1ccc(CN2CCN(Cc3cscn3)CC2)cc1", "metric.name": "Percent Effect", "measurement.units": "%", "numeric.readout": 18.8}

// query For the compound Cc1cc2n(n1)CC(CNC1CCN(Cc3ccccc3C)CC1)CN2 (stereo not drawn) , what Percent Effect is on record?
// result 3.7

Attribution: ChEMBL document CHEMBL3988442
